system: A549; experiment: Cytotoxicity against human A549 cells assessed as inhibition of cell growth incubated for 72 hrs by MTT assay; format: functional, cell-based; settings: A549, 72 h
# IC50 listing for each entry below
Answer format: numeric, µM implied, no suffix.

• CC(C)[C@@H](C)/C=C/[C@@H](C)[C@H]1CC[C@]2(C3=CC(=O)C4=CC(=O)CC[C@]4(C)C3=O)OC(=O)C[C@]12C = 54.3
• CC(C)[C@@H](C)/C=C/[C@@H](C)[C@H]1CC[C@]2(C3=C[C@H](O)C4=C[C@@H](O)CC[C@]4(C)C3=O)OC(=O)C[C@]12C = 5.3

Task: Request the reported IC50 associated with CC(C)[C@@H](C)/C=C/[C@@H](C)[C@H]1CC[C@]2(C3=C[C@H](O)[C@@H]4C[C@H](O)CC[C@]4(C)C3=O)OC(=O)C[C@]12C
Result: 19.7

Every entry's value here was drawn from ChEMBL document CHEMBL5252559.
